MFI values for the binders below.
- systemName: T1, human GPRC5D (human, UniProt Q9NZD1 1-345)
- T1 construct: on transfected HEK293/RBL cells or endogenous on myeloma cells (H929, MM1R, OPM2, LP1, JIM3, patient plasma cells); also called G protein-coupled receptor class C group 5 member D; hGPRC5D
- T1 sequence (Q9NZD1 whole entry): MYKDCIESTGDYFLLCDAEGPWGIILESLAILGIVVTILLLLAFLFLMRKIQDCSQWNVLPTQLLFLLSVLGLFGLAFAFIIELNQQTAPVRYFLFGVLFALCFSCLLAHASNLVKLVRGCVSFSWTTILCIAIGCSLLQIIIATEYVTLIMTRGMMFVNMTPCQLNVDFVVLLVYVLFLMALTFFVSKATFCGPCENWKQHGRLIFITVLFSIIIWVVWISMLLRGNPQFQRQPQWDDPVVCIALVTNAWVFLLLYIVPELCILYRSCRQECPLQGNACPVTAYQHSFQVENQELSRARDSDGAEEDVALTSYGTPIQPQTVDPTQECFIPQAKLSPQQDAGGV
- measurementDescription: FACS, human GPRC5D cells
experimentalEndpoint: MFI

GC5B497 (antibody, V domains shown, GC5B164 PTM variant; also called GC5H252) VH: EVQLVQSGAEVKKPGESLKISCKGSGYSFTSYVIGWVRQMPGKGLEWMGIIYPGDSDTRYSPSFQGQVTISADKSISTAYLQWSSLKASDTAMYYCARVYSFGGRHKALFDYWGQGTLVTVSS VL: EIVLTQSPATLSLSPGERATLSCRASQSVSSYLAWYQQKPGQAPRLLIYDASNRATGIPARFSGSGSGTDFTLTISSLEPEDFAVYYCQQRSNWPLTFGQGTKVEIK ... > 10000 mfi
GC5B473 (antibody, V domains shown, GC5B164 PTM variant; also called GC5H276) VH: EVQLVQSGAEVKKPGESLKISCKGSGYSFTSYFIGWVRQMPGKGLEWMGIIYPGASDTRYSPSFQGQVTISADKSISTAYLQWSSLKASDTAMYYCARVYSFGGRHKALFDYWGQGTLVTVSS VL: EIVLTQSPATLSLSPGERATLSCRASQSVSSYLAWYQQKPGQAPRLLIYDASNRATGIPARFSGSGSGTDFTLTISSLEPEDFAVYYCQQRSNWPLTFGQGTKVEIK ... > 10000 mfi
GC5B488 (antibody, V domains shown, GC5B164 PTM variant; also called GC5H261) VH: EVQLVQSGAEVKKPGESLKISCKGSGYSFTSYFIGWVRQMPGKGLEWMGIIYPGESDTRYSPSFQGQVTISADKSISTAYLQWSSLKASDTAMYYCARVYSFGGRHKALFDYWGQGTLVTVSS VL: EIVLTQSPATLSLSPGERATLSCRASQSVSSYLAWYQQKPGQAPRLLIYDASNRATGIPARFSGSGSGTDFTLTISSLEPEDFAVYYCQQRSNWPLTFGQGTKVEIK ... > 10000 mfi
